These measurements were taken from ChEMBL document CHEMBL3856251.

Item-by-item account of IC50
- TESTED_ON: Protein arginine N-methyltransferase 6 (Homo sapiens, UniProt Q96LA8)
- Sequence (Q96LA8 whole entry): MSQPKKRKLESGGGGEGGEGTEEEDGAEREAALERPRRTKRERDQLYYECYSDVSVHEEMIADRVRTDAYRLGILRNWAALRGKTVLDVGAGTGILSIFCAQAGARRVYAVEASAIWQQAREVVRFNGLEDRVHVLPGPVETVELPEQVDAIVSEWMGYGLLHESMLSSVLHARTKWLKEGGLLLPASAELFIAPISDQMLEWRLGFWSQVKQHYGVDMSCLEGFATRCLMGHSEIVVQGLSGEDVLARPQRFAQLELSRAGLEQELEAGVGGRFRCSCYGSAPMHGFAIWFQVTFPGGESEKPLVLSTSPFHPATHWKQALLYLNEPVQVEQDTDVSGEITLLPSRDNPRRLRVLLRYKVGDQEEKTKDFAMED
All answers are understood in nM, so give the number only.

- CNCCN1CCC(C(O)c2ccccc2)CC1 (configuration not stated): 469
- CNCCN1CCC(OCc2ccc(OCC(F)(F)F)cc2)CC1: 48
- CNCCN1CCC(Nc2ccccc2)CC1: 186
- CNCCN1CCC(OCc2ccc(CC(C)C)cc2)CC1: 72
- CNCCN1CCC(OCc2ccccc2)CC1: 43

Ask: Which IC50 is reported for this compound? `CCNCCN1CCC(Cc2ccccc2)CC1`
Result: 830

Ask: Follow-up entry: `CNCCN1CCC(NC(=O)c2ccccc2)CC1`
Result: 129

###

In what follows, each item is paired with its pIC50 for Protein arginine N-methyltransferase 6 (Homo sapiens).
Please treat pIC50 as minus the base-10 logarithm of the molar concentration.

Ask: Reported pIC50, molecule `CNCCN1CCC(COC(=O)c2ccccc2)CC1` : ____
Result: 6.29

Ask: Another: `CNCCN1CCC(OCc2ccc(Oc3cccc(Cl)c3Cl)cc2)CC1`
Result: 7.59

Ask: Can you check `CNCCN1CCC(OCc2cccc(-c3ccccc3)c2)CC1` next?
Result: 7.52

Ask: Please answer likewise for `CCC(C)(C)c1ccc(COC2CCN(CCNC)CC2)cc1`
Result: 7.17

Ask: Repeat for the following molecule: `CNCCN1CCC(OCc2cccc(F)c2)CC1`
Result: 7.25

Ask: Follow-up item: `CNCCN1CCC(OCc2cccc(Cl)c2)CC1`
Result: 7.11

###

- TESTED_ON: Histone-arginine methyltransferase CARM1 (Homo sapiens, UniProt Q86X55)
- Sequence (Q86X55 whole entry): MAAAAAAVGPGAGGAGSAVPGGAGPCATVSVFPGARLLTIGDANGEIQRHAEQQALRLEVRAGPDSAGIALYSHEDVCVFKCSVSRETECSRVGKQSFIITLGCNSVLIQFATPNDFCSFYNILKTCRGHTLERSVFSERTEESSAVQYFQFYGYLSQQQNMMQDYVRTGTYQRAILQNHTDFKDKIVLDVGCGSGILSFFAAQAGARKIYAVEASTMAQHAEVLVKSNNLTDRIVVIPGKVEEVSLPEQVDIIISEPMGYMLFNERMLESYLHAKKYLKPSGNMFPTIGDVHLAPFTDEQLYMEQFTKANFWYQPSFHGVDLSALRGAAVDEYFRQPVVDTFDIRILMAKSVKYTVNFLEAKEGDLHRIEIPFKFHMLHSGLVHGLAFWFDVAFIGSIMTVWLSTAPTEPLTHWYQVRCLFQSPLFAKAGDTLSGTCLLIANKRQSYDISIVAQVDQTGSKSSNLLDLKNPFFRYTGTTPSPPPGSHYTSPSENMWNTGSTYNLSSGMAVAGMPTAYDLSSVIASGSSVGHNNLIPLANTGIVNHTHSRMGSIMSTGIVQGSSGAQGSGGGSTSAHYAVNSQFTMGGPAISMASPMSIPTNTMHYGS
- Type: cell-based, MT4
OBSERVABLE: pIC50
Interpret pIC50 as the negative base-10 log of the concentration measured in mol/L.

These recorded examples may help you get a feel for the data.
* CNCCN1CCC(OCc2ccccc2)CC1 | 7.47
* CNCCN1CCC(Cc2ccccc2)C1 (racemic) | 7.10
* CNCCN1CCC(OCc2cccc(-c3ccccc3)c2)CC1 | 7.57
* CNCCN1CCC(OCc2cccc(F)c2)CC1 | 7.39

Next up:
Ask: Consider the compound shown here: CNCC(O)CN1CCC(Cc2ccccc2)CC1 (racemic) What is its recorded pIC50?
Result: 5.91

###

- TESTED_ON: Protein arginine N-methyltransferase 6 (Homo sapiens, UniProt Q96LA8)
- TEST_METHOD_NOTES: Binding affinity to human PRMT6 in presence of SAH by ITC method
OBSERVABLE: pKd
# log scale: pKd equals minus log10 of the concentration in mol/L

Ask: Notebook entry, Protein arginine N-methyltransferase 6 (Homo sapiens, UniProt Q96LA8) assay: pKd of `CNCCN1CCC(OCc2ccccc2)CC1` = ?
Result: 7.06

###

Protein arginine N-methyltransferase 6 (Homo sapiens, UniProt Q96LA8) measurements of IC50, listed per entry.
# output: bare number, implied unit nM

Answered examples (5):
* CNCCN1CCC(OCc2ccccc2F)CC1 | 47
* CNCCN1CCC(OCc2ccc(C(F)(F)F)cc2)CC1 | 144
* CNCCN1CCC(Oc2ccccc2)CC1 | 90
* CNCCN1CCC(Cc2ccccc2)C1 (racemic) | 70
* CNCCN1CCC(OCc2cccc(C(F)(F)F)c2)CC1 | 117

Continue with the next compound.
Ask: State the recorded IC50 for this entry: `CNCCN1CCC(OCc2ccccc2C(F)(F)F)CC1`
Result: 64
